- Tested on: PC-3 prostate
- Experiment notes: NCI-60 one-dose screen, 48 h (100 = growth as untreated, 0 = no growth, -100 = all killed)
- Study conditions: 10 µM unless noted
- Description: Growth inhibition of the PC-3 human tumor cell line is measured as a screen for anti-cancer activity. Cells are grown in 96 well plates and exposed to the test compound for 48 hours. Compounds are tested at a single concentration, which is 10^-5 M for most compounds. The reported endpoint is percent growth (GI% or GIPRCNT), where numbers from 0 - 100% represent growth inhibition, and numbers from -100% - 0 represent cell death. For example, a value of 40 represents 60% growth inhibition. […]
This is part of a sample that, as a whole, favours compounds with a hit. Of some 83,000 tested, about 20% had one in any assay.
Assign classes using reported growth values and the ranges low-valued = under 30%, mid-valued = from 30% up to 80%, high-valued = 80% and over, please.

Q: // return the class label for CCCCN1C(=O)/C(=c2\sc3n(c2=O)C2C(NN=3)N(CC)C(=O)N2CC)c2ccccc21 (configuration not stated)
A: low-valued

Q: The entry to classify is C#Cc1ccc(NC(=O)c2ccc(/C=C/C(=O)c3nccn3C)cc2)cc1 ; which class holds it?
A: low-valued

Q: Consider C[C@H](NC(=O)[C@@H](C)N)[C@H](Oc1ccc2c(cnn2-c2ccc(F)cc2)c1)c1ccc2c(c1)OCCO2 . To which growth class does it belong?
A: mid-valued

Q: Which bin, given its growth, does Cn1c(-c2ccc(Br)cc2)c(O)c(=O)c2c(F)cccc21 occupy?
A: high-valued

Q: Could you tell me which band Cn1ccnc1C(=O)C(=O)Nc1ccc(CC(=O)Nc2ccccc2)cc1 belongs to?
A: high-valued

----------
- Test system: COLO 205 colon
- Experiment notes: NCI-60 one-dose screen, 48 h (100 = growth as untreated, 0 = no growth, -100 = all killed)
- Study conditions: 10 µM unless noted
About 83,000 compounds went through this panel and 20% of them were active in at least one assay; those are over-represented in the sample as a whole.
Give Yes when the value for growth is at least 30%. Give No when it is less.

Answered cases to consult:
Molecule | Class label
Clc1ccc2c(c1)N(c1ncnc3ccc(-c4cnc5[nH]ncc5c4)cc13)CC2 | Yes
COc1ccc(C(c2cc(OC)c(OC)c(OC)c2)N2CCN(c3ccccc3)CC2)cc1 (stereo not given) | Yes
c1ccc(CNc2c3ccccc3nc3ccccc23)cc1 | No
CCN(CC)CCNC(=O)c1cn2ncnc(Oc3ccc(NC(=O)Nc4ccc(Cl)c(C(F)(F)F)c4)c(F)c3)c2c1C | No

Below: the item to evaluate.
Q: Tell me whether growth is at least 30% here: CCOP(=O)(OCC)c1nc(-c2ccccc2)oc1NCc1cccnc1
A: Yes

----------
- Tested on: SK-MEL-2 melanoma
- Experiment notes: NCI-60 one-dose screen, 48 h (100 = growth as untreated, 0 = no growth, -100 = all killed)
- Study conditions: 10 µM unless noted
About 83,000 compounds went through this panel and 20% of them were active in at least one assay; those are over-represented in the sample as a whole.
Decision: growth beneath 80% gives YES; growth meeting or exceeding 80% gives NO.

Examples from the recorded data:
Compound | Experimental system | Class label
Fc1cc(F)cc(C(c2c[nH]c3ccccc23)c2c[nH]c3ccccc23)c1 | SK-MEL-2 melanoma | YES
O=c1c2cc(-c3ccccc3)sc2nc2sc(-c3ccccc3)nn12 | SK-MEL-2 melanoma | NO
CSc1nc2sc3c(c2c(=O)n1-c1ccc([N+](=O)[O-])cc1)CCCCC3 | SK-MEL-2 melanoma | NO
CCCCCCC1(C)NCCO1 (configuration not stated) | SK-MEL-2 melanoma | NO
O=[N+]([O-])C1C(c2ccccc2)C12c1ccccc1-c1ccccc12 (configuration not stated) | SK-MEL-2 melanoma | YES

Q: Does the reported growth of COC(C(=O)[C@@H](O)[C@@H](C)O)[C@@H]1Cc2cc3cc(O[C@H]4C[C@@H](O[C@H]5C[C@@H](O)[C@H](O)C(C)O5)[C@H](O)C(C)O4)cc(O)c3c(O)c2C(=O)[C@H]1O[C@H]1C[C@@H](O[C@H]2C[C@@H](O[C@H]3C[C@@H](OC)[C@H](O)C(C)O3)[C@@H](O)C(C)O2)[C@H](O)C(C)O1 (some centres not stated) stay below 80%?
A: YES

----------
- Test system: SF-295 CNS
- Experiment notes: NCI-60 one-dose screen, 48 h
- Study conditions: 10 µM unless noted
- Protocol: Cells are grown in 96 well plates and exposed to the test compound for 48 hours. Compounds are tested at a single concentration, which is 10^-5 M for most compounds. The reported endpoint is percent growth (GI% or GIPRCNT), where numbers from 0 - 100% represent growth inhibition, and numbers from -100% - 0 represent cell death. For example, a value of 40 represents 60% growth inhibition. A value of 0 means no net growth occurred over the course of the experiment. […]
Compounds without any hit were thinned out: in the full panel of roughly 83,000, 20% have a hit. The source made the active and inactive calls. How the source made its calls: active means growth percent below 10; inactive means the rest.
Parameter call: string, one of 1.0 = active, 0.0 = inactive

# count of solved cases: 5
Structure as smiles | Class label
Clc1ccc(CNc2c3ccccc3nc3ccccc23)cc1 | 0.0
O=C1c2cccnc2C(=O)c2c1c(C(=O)NCCn1ccnc1)c1ccccn21 | 0.0
C#CCOc1cccc(Nc2ncnc3ccc(NC(=O)CCl)cc23)c1 | 1.0
Fc1ccc(Nc2nc3nonc3nc2Nc2ccc(I)cc2)cc1 | 1.0
CC/C(=C(/c1ccc(Cl)cc1)c1ccc(OCCN2CCCC2)cc1)c1ccc(OC)cc1 | 0.0

Q: Can you look up the reported call for O=C(Nc1cccc([N+](=O)[O-])c1)c1cc2ccccc2cc1O for me?
A: 1.0

Q: Give the logged outcome of this assay for the following molecule: Brc1ccc2[nH]cc(-c3nonc3-c3c[nH]c4ccccc34)c2c1
A: 0.0

Q: # lookup: test call for COC(=O)CNC(=O)[C@H](Cc1ccccc1)NCc1ccncc1
A: 0.0

Q: Outcome? CN1C(=O)/C(=C/c2ccc(C(=O)Nc3ncc(Cc4ccc(Cl)cc4)s3)cc2)SC1=S
A: 0.0

Q: Short answer needed: outcome of this test for CCCCCC(=O)OCC(=O)O[C@@H]1C[C@]2(C(C)C)O[C@@]1(C)[C@@H]1CC[C@@H](C)[C@H]1[C@@H]2OC(=O)/C=C/c1ccccc1 ?
A: 0.0

----------
- Tested on: COLO 205 colon
- Experiment notes: NCI-60 one-dose screen, 48 h (100 = growth as untreated, 0 = no growth, -100 = all killed)
- Study conditions: 10 µM unless noted
- Description: Cells are grown in 96 well plates and exposed to the test compound for 48 hours. Compounds are tested at a single concentration, which is 10^-5 M for most compounds. The reported endpoint is percent growth (GI% or GIPRCNT), where numbers from 0 - 100% represent growth inhibition, and numbers from -100% - 0 represent cell death. For example, a value of 40 represents 60% growth inhibition. A value of 0 means no net growth occurred over the course of the experiment. […]
About 83,000 compounds went through this panel and 20% of them were active in at least one assay; those are over-represented in the sample as a whole. The source made the active and inactive calls. The calls were made as follows: active = growth percent below 10; inactive = the rest.
Assay metric: growth

Here are 3 compounds together with their reported answers.
Compound | Experimental system | Recorded result
COc1cc(OC)cc(C2=C3CC[C@@H]4[C@H](CC[C@]5(C)C(=O)CC[C@@H]45)C3=CC3C(O)c4cccnc4N4C(=O)COC234)c1 (stereo partly drawn) | COLO 205 colon | 109% (inactive)
COc1ccc(-c2nc(/C=C3\SC(=NCc4ccccc4)NC3=O)c3ccccn23)cc1 | COLO 205 colon | -69.1% (active)
CSc1nc2sc3c(c2c(=O)n1-c1ccc([N+](=O)[O-])cc1)CCCCC3 | COLO 205 colon | 99% (inactive)

// CCc1n(Cc2ccc3ccccc3c2)cc[n+]1Cc1ccc2ccccc2c1 : growth value = -67.5% (active)

Summary for this compound, N#CC1CCc2c(c(-c3cn[nH]c3C(F)(F)F)nc3c(F)cc4[nH]ncc4c23)C1 (stereo not drawn) : growth is 7.05% (active)

Recorded growth (compound Cn1cccc1C(=O)C1C(c2cccc([N+](=O)[O-])c2)C2C3CCCCC3CN2C12C(=O)Nc1ccc(Cl)cc12 (stereo not drawn) ): 20.6% (inactive)

growth in this record for O=C(c1cc2ccccc2o1)c1nn(-c2ccccc2)/c(=N/N=Cc2cn(-c3ccccc3)nc2-c2cc3ccccc3oc2=O)s1 : 117% (inactive)

The reported value for C=C(C)[C@@H]1CC[C@]2(C)[C@H](CC=C3[C@@H]4[C@H](C)[C@@H](C)CC[C@]4(CO)CC[C@]32C)[C@@]1(C)CCCN in terms of growth is -57.2% (active)

----------
Listed here: items and their measured growth.
- Tested on: OVCAR-4 ovarian
- Experiment notes: NCI-60 one-dose screen, 48 h (100 = growth as untreated, 0 = no growth, -100 = all killed)
- Study conditions: 10 µM unless noted
About 83,000 compounds went through this panel and 20% of them were active in at least one assay; those are over-represented in the sample as a whole.
// units = %; emit number, no label

Compound | Experimental system | Measurement units | growth
O=C(c1ccc(-c2nc(CSc3nc4ccccc4s3)no2)cc1)N1CCSCC1 | OVCAR-4 ovarian | % | 69.5

Item Cc1ccc(-c2csc(NC(=O)CN3CCN(c4cc5c(cc4F)c(=O)c(C(=O)O)cn5C4CC4)CC3)n2)cc1 was tested on OVCAR-4 ovarian; the reported growth is 20.8

Reading of growth for CC(=O)OCc1nc(C#N)c(N(C)C)o1 with OVCAR-4 ovarian: 100

Value (growth, OVCAR-4 ovarian) for record O=C(Cn1cc(CN2C(=O)c3ccccc3S2(=O)=O)nn1)Nc1nc2ccccc2s1 = 100

Response field growth (OVCAR-4 ovarian) for item CC(C)N1CN2C(=S)NC3C2N(C1)C(=S)N3C (stereo not given) : 117
